Hello, the source for this data is the supplement of paper PMC13380429, in case you need it.

tested on: U2OS; assay: cell viability relative to DMSO; higher = less toxic; conditions: 72 h; 10 nM
quantity: cell viability (%)
# number only, unit % dropped from output

State cell viability (U2OS) of "CC(=O)Nc1c(I)cc(I)c(C(=O)O)c1I" . 92.4

State cell viability (U2OS) of "COc1ccc(-c2ccc3cc(C(=O)O)ccc3c2)cc1C12CC3CC(CC(C3)C1)C2" . 98.2

State cell viability (U2OS) of "O=C(O)CNC(=O)c1nc(Cl)c2ccccc2c1O" . 98

----------
test system: A549-ACE2 infected with SARS-CoV-2; assay: morphology score (similarity to uninfected cells); higher = more like uninfected cells; settings: 0.3 µM; 24 h
quantity: morphology score
Give a plain numeric answer without units written out.

Previously resolved entries follow.
{"compound": "CC(C)c1ccc(C(=O)c2cccs2)c(SCCCCCCCCN(C)C)n1", "measurement_target": "A549-ACE2 infected with SARS-CoV-2", "quantity": "morphology score", "quantitative_readout": 0.17}
{"compound": "S=C(S)N1CCCC1 [pyrrolidine-dithiocarbamate]", "measurement_target": "A549-ACE2 infected with SARS-CoV-2", "quantity": "morphology score", "quantitative_readout": 0.28}
{"compound": "COc1cc(COc2cc(N)c(Cl)cc2C(=O)CCC2CCN(CCNS(C)(=O)=O)CC2)cc(OC)c1", "measurement_target": "A549-ACE2 infected with SARS-CoV-2", "quantity": "morphology score", "quantitative_readout": -0.13}
{"compound": "Cn1nc(C(C)(C)C)cc1C(=O)N[C@@H](Cc1cccc(Cl)c1)C(=O)NCC#N", "measurement_target": "A549-ACE2 infected with SARS-CoV-2", "quantity": "morphology score", "quantitative_readout": 0.72}

Give the value of morphology score reported for the following: "CC(=O)c1cc([N+](=O)[O-])c(Sc2ccc(F)cc2F)s1" 0.06

----------
system: Vero E6; assay: cell viability relative to DMSO; higher = less toxic; conditions: 72 h; 100 nM
Where a name gives a salt, the structure may show the parent alone.
Listed here are compounds together with their documented cell viability.
# number only, unit % dropped from output

Previously resolved entries follow.
{"compound": "NS(=O)(=O)c1cc2c(cc1Cl)NC(CC1CCCC1)NS2(=O)=O (configuration not stated) [cyclopenthiazide]", "unit_of_measurement": "%", "quantitative_readout": 98.9}
{"compound": "COC(=O)[C@@H]1CC2=CC(=O)CC[C@]2(C)[C@@]23O[C@@H]2C[C@@]2(C)[C@@H](CC[C@@]24CCC(=O)O4)[C@H]13", "unit_of_measurement": "%", "quantitative_readout": 99.1}
{"compound": "C[C@H](N)Cc1c[nH]cn1 [alpha-methylhistamine-dihydrobromide-(S)-(+)]", "unit_of_measurement": "%", "quantitative_readout": 92.7}
{"compound": "CN(C)[C@@H]1CCc2[nH]c3ccc(NC(=O)c4ccc(F)cc4)cc3c2C1", "unit_of_measurement": "%", "quantitative_readout": 100}
{"compound": "Cc1cn2nc([C@@H]3CCCCN3C(=O)c3cc(Cl)ccc3NS(C)(=O)=O)cc2nc1N1CC[C@H](N)C1", "unit_of_measurement": "%", "quantitative_readout": 94.4}

Give the value of cell viability reported for the following: "Oc1ccc2c3c1O[C@H]1c4[nH]c5c(c4C[C@@]4(O)[C@@H](C2)N(CC2CC2)CC[C@]314)C[C@@]1(O)[C@H]2Cc3ccc(O)c4c3[C@@]1(CCN2CC1CC1)[C@H]5O4" 91.2

Give the value of cell viability reported for the following: "Cc1nc(Nc2cnn(C3CCNCC3)c2)nc2c1N(C)C(=O)c1cc3ccccc3cc1N2C" 104

----------
tested on: HepG2; test: drug sensitivity score (DSS) for viability; higher = more toxic; extreme values may be limits of the assay; conditions: 72 h
quantity: drug sensitivity score
Give a plain numeric answer without units written out.

Previously resolved entries follow.
{"sample_smiles": "CC(C)(NS(=O)(=O)c1ccc(Oc2ccc(F)cc2)cc1)C(=O)NO", "measurement_target": "HepG2", "quantitative_readout": 0.3}
{"sample_smiles": "CN(C)CCCOc1nn(Cc2ccccc2)c2ccccc12", "measurement_target": "HepG2", "quantitative_readout": 0}
{"sample_smiles": "N=C(N)SCCc1c[nH]cn1", "measurement_target": "HepG2", "quantitative_readout": 0}
{"sample_smiles": "CC(C)(C)Sc1c(CC(C)(C)C(=O)O)n(Cc2ccc(Cl)cc2)c2ccc(OCc3ccc4ccccc4n3)cc12", "measurement_target": "HepG2", "quantitative_readout": 0}

Proceeding to the next compound to report its drug sensitivity score.
Give the value of drug sensitivity score reported for the following: "O=C(NC1CCC1)c1ccc(C#Cc2cccc(F)c2)nc1" 0

----------
Listed here are compounds together with their documented relative viability EC50.
tested on: HepG2; test: relative viability EC50 (midpoint between 100% and the lowest measured viability); higher = less toxic; conditions: 72 h
# number only, unit µM dropped from output

{"compound": "Cc1ccccc1N(C)C(=O)c1ccc([S+]([O-])c2nccs2)c([N+](=O)[O-])c1 (stereo not given)", "measurement_target": "HepG2", "relative viability EC50 / µM": 2.29}

Proceeding to the next compound to report its relative viability EC50.
State relative viability EC50 (HepG2) of "CCCS(=O)(=O)Nc1ccc(F)c(C(=O)c2c[nH]c3ncc(Cl)cc23)c1F" . 1.82

----------
system: Vero E6; assay: cell viability relative to DMSO; higher = less toxic; conditions: 72 h; 1 nM
Listed here are compounds together with their documented cell viability.
# number only, unit % dropped from output

{"compound": "CCC1=C[C@@H]2CN3CCc4c([nH]c5ccccc45)[C@@](C(=O)OC)(C2)[C@@H]13", "cell viability [%]": 103}

Give the value of cell viability reported for the following: "Cc1ccc(CNc2ncnc3ccc(-c4ccc(CO)o4)cc23)o1" 104

Give the value of cell viability reported for the following: "CCC[C@H](N[C@H]1CCc2cc(F)cc(F)c2C1)C(=O)Nc1cn(C(C)(C)CNCC(C)(C)C)cn1" 99.7

Give the value of cell viability reported for the following: "Cc1nc(Nc2cnn(C3CCNCC3)c2)nc2c1N(C)C(=O)c1cc3ccccc3cc1N2C" 106

Give the value of cell viability reported for the following: "C[C@]12CCC(=O)C=C1CC[C@@H]1[C@@H]2C(=O)C[C@]2(C)C(=O)CC[C@@H]12" 95.3

Give the value of cell viability reported for the following: Oc1ccc(C(O)CNCCCCCCNCC(O)c2ccc(O)c(O)c2)cc1O (stereo not drawn) [hexoprenaline] 103

----------
Listed here are molecules together with their documented cell viability.
tested on: Caco-2; experiment: cell viability relative to DMSO; higher = less toxic; settings: 72 h; 1 nM
# number only, unit % dropped from output

Give the value of cell viability reported for the following: "O=C(NC1CCC1)c1ccc(C#Cc2cccc(F)c2)nc1" 92.4

Give the value of cell viability reported for the following: CC(C)(C)Sc1c(CC(C)(C)C(=O)O)n(Cc2ccc(Cl)cc2)c2ccc(OCc3ccc4ccccc4n3)cc12 [quiflapon] 104

Give the value of cell viability reported for the following: "CCCc1c(OCCCOc2ccc(OCC(=O)O)cc2)ccc(C(C)=O)c1O" 97.2

----------
Listed here are molecules together with their documented cell viability.
tested on: Calu-3; test: cell viability relative to DMSO; higher = less toxic; conditions: 72 h; 10 nM
# number only, unit % dropped from output

State cell viability (Calu-3) of CN(C)CCCOc1nn(Cc2ccccc2)c2ccccc12 [benzydamine] . 91.7

----------
system: Caco-2; assay: cell viability relative to DMSO; higher = less toxic; settings: 72 h; 100 nM
Listed here are molecules together with their documented cell viability.
Lab note: write values as number then unit, every time.

{"molecule": "COc1ccc(-c2coc3cc(O)cc(O)c3c2=O)cc1 [4-methylgenistein]", "cell viability": "105%"}
{"molecule": "C/C=C/C=C/C(=O)O [sorbic-acid]", "cell viability": "106%"}
{"molecule": "Cc1ccc(-c2nn(C(C)(C)CNC(=O)c3ncccc3C)c3ncnc(N)c23)cc1 [WEHI-345-analog]", "cell viability": "95.5%"}
{"molecule": "O=C(O)C1=CCCN(CCON=C(c2ccccc2)c2ccccc2)C1 [NNC-711]", "cell viability": "104%"}

Give the value of cell viability reported for the following: CC(c1cc2ccccc2s1)N(O)C(N)=O (stereo not drawn) [zileuton] 93.3%

Give the value of cell viability reported for the following: CCC1=C[C@@H]2CN(C1)Cc1c([nH]c3ccccc13)[C@@](C(=O)OC)(c1cc3c(cc1OC)N(C)[C@H]1[C@@](O)(C(=O)OC)[C@H](OC(C)=O)[C@]4(CC)C=CCN5CC[C@]31[C@@H]54)C2 [vinorelbine] 58.7%

----------
tested on: U2OS; assay: cell viability relative to DMSO; higher = less toxic; settings: 72 h; 1 nM
quantity: cell viability

Previously resolved entries follow.
{"sample_smiles": "Cc1cnc(-c2cc(N3CCN(C(=O)CCS(C)(=O)=O)CC3)ncc2Cl)c(C)c1", "measurement_target": "U2OS", "quantity": "cell viability", "result": "92.1%"}
{"sample_smiles": "CC(C)=CC[C@@H](O)C1=CC(=O)c2c(O)ccc(O)c2C1=O", "measurement_target": "U2OS", "quantity": "cell viability", "result": "96.9%"}

Proceeding to the next compound to report its cell viability.
Give the value of cell viability reported for the following: "CCc1ccc(/C=C2/SC(=S)NC2=O)cc1" 97.9%
